system: FAOD-A; assay: Effect of metal ion on the activity of FAOD-A; format: biochemical, A. terreus IFO6365; details: material 1 mM, 0.1 M Tris-HCl pH 8.0, 5 min at 30° C.; None = 100

# SMILES_CODE, relative activity (%)
data = [
    ("[Cl-].[Rb+]", 107),
    ("[Cl][Mn][Cl]", 59),
    ("[Ca+2].[Cl-].[Cl-]", 104),
    ("[Cl-].[Li+]", 103),
    ("[Cl-].[Cl-].[Mg+2]", 108),
    ("[Cl-].[Cs+]", 108),
]

====

Reported values of relative activity (%) for individual entries
biological target: FAOD-L (Aspergillus terreus); construct: 94 kDa by gel filtration, 48 kDa subunit, so homodimer; test: Effect of metal ion on the activity of FAOD-L; assay type: biochemical, A. terreus GP1; settings: material 1 mM, 0.1 M Tris-HCl pH 8.0, 5 min at 30° C.; None = 100
Sequence (Q92204 entry or part of it): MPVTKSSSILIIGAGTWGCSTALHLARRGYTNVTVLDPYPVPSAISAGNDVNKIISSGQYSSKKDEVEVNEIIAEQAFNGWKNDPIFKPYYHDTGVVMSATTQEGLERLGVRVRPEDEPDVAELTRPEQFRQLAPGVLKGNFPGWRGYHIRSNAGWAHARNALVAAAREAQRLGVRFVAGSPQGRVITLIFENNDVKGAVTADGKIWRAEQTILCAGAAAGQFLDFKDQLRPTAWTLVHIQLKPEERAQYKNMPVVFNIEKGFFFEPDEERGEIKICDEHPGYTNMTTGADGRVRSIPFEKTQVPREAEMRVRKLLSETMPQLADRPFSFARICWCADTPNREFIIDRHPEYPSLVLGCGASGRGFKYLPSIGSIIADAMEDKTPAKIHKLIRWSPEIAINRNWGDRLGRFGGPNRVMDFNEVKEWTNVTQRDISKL

# COMPOUND, relative activity (%)
data = [
    ("[Cl-].[Cl-].[Mg+2] [MgCl2]", "101%"),
    ("O=S(=O)([O-])[O-].[Fe+2] [FeSO4]", "95%"),
    ("[Cl][Mn][Cl] [MnCl2]", "101%"),
    ("[Ca+2].[Cl-].[Cl-] [CaCl2]", "96%"),
]

====

Reported values of relative activity (%) for individual entries
test system: FAOD-A; assay: Effect of various inhibitors on FAOD-A activity; assay type: biochemical, A. terreus IFO6365; conditions: material 1 mM; None = 100

# MOLECULE, relative activity (%)
data = [
    ("NNC(N)=O [semicarbazide]", 64),
    ("c1cnc2c(c1)ccc1cccnc12", 62),
    ("c1ccc(-c2ccccn2)nc1", 67),
    ("NO [hydroxylamine]", 10),
]
